src = patent US20160355530A1

Reported EC50 by item:
system: HCV 1a-H77 subgenomic replicon; experiment: microbe, parasite or virus in culture; format: cell-based, HCV genotype 1a; conditions: Hepatitis C virus, stable replicon, 5% FBS, absence of human plasma; read-out: Stable Replicon 1a H77 5% FBS EC50
# output: bare number, implied unit nM

EC50 in this record for CC1NC(c2c(-c3ccc(F)cc3)oc3cc(N(CC[S+](C)[O-])S(C)(=O)=O)c(C4CC4)cc23)=NO1 (stereo not drawn) : 14.8

Just so you know, measured EC50 for `CS(=O)(=O)CCN(c1cc2oc(-c3ccc(F)cc3)c(C3=NOCCN3)c2cc1C1CC1)S(C)(=O)=O` came out at 8.4

Per the records, this molecule ( `CS(=O)(=O)N(Cc1cnc(-c2c[nH]c(=O)[nH]c2=O)s1)c1ccc2c(-c3ncc[nH]3)c(-c3ccccc3)oc2c1` ) has EC50 equal to 1000

The recorded EC50 for entry `CS(=O)(=O)N(CCCC(=O)N1CCCCC1)c1cc2oc(-c3ccc(F)cc3)c(-c3ncc[nH]3)c2cc1C1CC1` equals 31.9

Field EC50 (entry `CS(=O)(=O)N(CCN1CCCC1)c1cc2oc(-c3ccc(F)cc3)c(C3=NOCCN3)c2cc1C1CC1` ) reads 161

----------
test system: HCV 1b-BB7 subgenomic replicon; assay: microbe, parasite or virus in culture; type: cell-based, HCV genotype 1b; conditions: Hepatitis C virus, stable replicon, strain 1b BB7, 5% FBS + 40% human plasma; read-out: 1b BB7 5% FBS + 40% Human Plasma EC50
pEC50: −log10 of the molar value.
Label N if pEC50 falls below 6; label Y in every other case.

Some solved cases for reference:
CC(C)CN(c1cc2oc(-c3ccc(F)cc3)c(-c3ncc[nH]3)c2cc1C1CC1)S(C)(=O)=O [Example 66]; Y
CS(=O)(=O)N(CCN1CCOCC1)c1cc2oc(-c3ccc(F)cc3)c(-c3ncc[nH]3)c2cc1C1CC1 [Example 58]; Y
CC(C)CCN(c1cc2oc(-c3ccc(F)cc3)c(C3=NOCCN3)c2cc1C1CC1)S(C)(=O)=O [Example 10]; Y
CS(=O)(=O)N(CCCC(=O)N1CCCCC1)c1cc2oc(-c3ccc(F)cc3)c(-c3ncc[nH]3)c2cc1C1CC1 [Example 104]; Y
CC(C)CCN(c1cc2oc(-c3ccc(F)cc3)c(C3=NOCN3)c2cc1C1CC1)S(C)(=O)=O [Example 156]; N
CS(=O)(=O)Nc1cc2oc(-c3ccc(F)cc3)c(-c3nc(Cl)c(Cl)[nH]3)c2cc1C1CC1 [Example 163]; N
CS(=O)(=O)N(CCCc1nsc(=O)[nH]1)c1cc2oc(-c3ccc(F)cc3)c(-c3ncc[nH]3)c2cc1C1CC1 [Example 178]; Y
CC(C)(O)C(O)CN(c1cc2oc(-c3ccc(F)cc3)c(-c3ncc[nH]3)c2cc1C1CC1)S(C)(=O)=O (stereo not shown) [Example 94]; Y

Can CNC(=O)CCCN(c1cc2oc(-c3ccc(F)cc3)c(-c3ncc[nH]3)c2cc1C1CC1)S(C)(=O)=O [Example 107] be said to have pEC50 at or above 6? Y

Identify whether the reported pEC50 of the following molecule is 6 or greater: CS(=O)(=O)N(CCCCCO)c1cc2oc(-c3ccc(F)cc3)c(-c3ncc[nH]3)c2cc1C1CC1 [Example 88] Y

----------
tested on: HCV 1a-H77 subgenomic replicon; test: microbe, parasite or virus in culture; assay type: cell-based, HCV genotype 1a; conditions: Hepatitis C virus, stable replicon, strain 1a H77, 5% FBS, no human plasma; read-out: 1a H77 5% FBS EC50
// reported EC50 per item
# output: bare number, implied unit nM

CC(C)=CCN(c1cc2oc(-c3ccc(F)cc3)c(-c3ncc[nH]3)c2cc1C1CC1)S(C)(=O)=O [Example 54]; 89
Cc1ccc(C)n1-c1nc(CCCN(c2cc3oc(-c4ccc(F)cc4)c(-c4ncc[nH]4)c3cc2C2CC2)S(C)(=O)=O)cs1 [Example 62]; 88.7

EC50 for CC(C)CCN(c1cc2oc(-c3ccc(F)cc3)c(-c3nccc(=O)[nH]3)c2cc1C1CC1)S(C)(=O)=O [Example 161] is 124

----------
Measured IC50 of individual entries
target: HCV NS5B polymerase 1a-H77-C316Y (Hepatitis C virus genotype 1a, UniProt P27958, C2736Y); construct: six-histidine tag; assay: biochemical
Sequence (P27958 2421-2990 C2736Y): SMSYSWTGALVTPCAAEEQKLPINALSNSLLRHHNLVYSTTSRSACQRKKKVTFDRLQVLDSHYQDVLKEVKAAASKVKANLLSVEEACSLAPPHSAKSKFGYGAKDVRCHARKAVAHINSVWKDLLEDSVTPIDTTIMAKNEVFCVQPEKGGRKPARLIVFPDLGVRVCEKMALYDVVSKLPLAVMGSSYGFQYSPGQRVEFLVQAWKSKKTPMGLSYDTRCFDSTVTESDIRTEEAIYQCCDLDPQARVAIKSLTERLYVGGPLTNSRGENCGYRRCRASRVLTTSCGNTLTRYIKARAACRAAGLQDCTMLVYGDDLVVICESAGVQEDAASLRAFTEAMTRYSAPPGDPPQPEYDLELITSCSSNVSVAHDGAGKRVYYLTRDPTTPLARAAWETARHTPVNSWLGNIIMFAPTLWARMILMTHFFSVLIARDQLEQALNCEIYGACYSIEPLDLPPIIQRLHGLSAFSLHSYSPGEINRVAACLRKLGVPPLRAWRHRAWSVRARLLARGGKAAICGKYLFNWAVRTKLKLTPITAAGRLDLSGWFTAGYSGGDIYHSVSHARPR
Supply the numeric figure in nM, leaving out any unit text.

CCCCCCN(c1cc2oc(-c3ccc(F)cc3)c(-c3ncc[nH]3)c2cc1C1CC1)S(C)(=O)=O; 136
CS(=O)(=O)N(CCCCF)c1cc2oc(-c3ccc(F)cc3)c(-c3ncc[nH]3)c2cc1C1CC1; 79
CS(=O)(=O)N(CCCC(F)(F)F)c1cc2oc(-c3ccc(F)cc3)c(-c3ncc[nH]3)c2cc1C1CC1; 105
CS(=O)(=O)N(CCCS(=O)(=O)N1CCOCC1)c1cc2oc(-c3ccc(F)cc3)c(-c3ncc[nH]3)c2cc1C1CC1; 141
CS(=O)(=O)N(CCCC(=O)O)c1cc2oc(-c3ccc(F)cc3)c(-c3ncc[nH]3)c2cc1C1CC1; 77

Input `CS(=O)(=O)N(CCC/C(N)=N/O)c1cc2oc(-c3ccc(F)cc3)c(C3=NOCCN3)c2cc1C1CC1` . Output IC50: 103

----------
system: HCV 1b-BB7 subgenomic replicon; test: microbe, parasite or virus in culture; format: cell-based, HCV genotype 1b; details: Hepatitis C virus, stable replicon, strain 1b BB7, 5% FBS; read-out: 1b BB7 5% FBS EC50
Readout: log10 of EC50 (log10 of the value in nM)
Hi team, quick reminder: these entries are log10 of EC50 (nM).

// solved cases for log10 of EC50 follow
CC(C)=CCN(c1cc2oc(-c3ccc(F)cc3)c(-c3ncc[nH]3)c2cc1C1CC1)S(C)(=O)=O [Example 54]; 1.81
COc1ccc(CN(c2cc3oc(-c4ccc(F)cc4)c(C4=NOCN4)c3cc2C2CC2)S(C)(=O)=O)cc1 [Example 145]; 1.90
CS(=O)(=O)N(CCCCO)c1cc2oc(-c3ccc(F)cc3)c(C3=NOCN3)c2cc1C1CC1 [Example 16]; 0.40
CS(=O)(=O)N(CCN)c1cc2oc(-c3ccc(F)cc3)c(-c3ncc[nH]3)c2cc1C1CC1 [Example 111]; 1.61
CS(=O)(=O)N(Cc1cccc(C(F)(F)F)c1)c1ccc2c(-c3ncc[nH]3)c(-c3ccccc3)oc2c1 [Example 32]; 2.78
[2H]C1([2H])NC(c2c(-c3ccc(F)cc3)oc3cc(N(CCCCS(C)(=O)=O)S(C)(=O)=O)c(C4CC4)cc23)=NO1 [Example 150]; 0.60

log10 of EC50 in this record for CS(=O)(=O)CCCCN(c1cc2oc(-c3ccc(F)cc3)c(C3=NOCN3)c2cc1C1CC1)S(C)(=O)=O [Example 148] : 0.60

// Cc1cnc(-c2c(-c3ccc(F)cc3)oc3cc(N(CCC(C)C)S(C)(=O)=O)c(C4CC4)cc23)[nH]1 [Example 172] : log10 of EC50 value = 2.05

Entry C[S+]([O-])CCN(c1cc2oc(-c3ccc(F)cc3)c(C3=NOCCN3)c2cc1C1CC1)S(C)(=O)=O (centres unmarked) [Example 138] ; log10 of EC50 = 1.56

Notebook: CN(C)C(=O)CCCN(c1cc2oc(-c3ccc(F)cc3)c(-c3ncc[nH]3)c2cc1C1CC1)S(C)(=O)=O [Example 102] , log10 of EC50 read as 1.00

The recorded log10 of EC50 for CS(=O)(=O)N(CC1CCCO1)c1cc2oc(-c3ccc(F)cc3)c(-c3ncc[nH]3)c2cc1C1CC1 (centres unmarked) [Example 75] is 1.65

----------
tested on: HCV 1a-H77 subgenomic replicon; test: microbe, parasite or virus in culture; format: cell-based, HCV genotype 1a; details: Hepatitis C virus, stable replicon, 5% FBS, absence of human plasma; read-out: Stable Replicon 1a H77 5% FBS EC50
# pEC50 values compiled below
// scale note: pEC50 = -log10(conc_M); give the bare number

Worked examples follow.
CCS(=O)(=O)CCN(c1cc2oc(-c3ccc(F)cc3)c(C3=NOCCN3)c2cc1C1CC1)S(C)(=O)=O; 7.94
CS(=O)(=O)N(Cc1cnc(Br)s1)c1cc2oc(-c3ccc(F)cc3)c(-c3ncc[nH]3)c2cc1C1CC1; 7.27
CS(=O)(=O)CCCCN(c1cc2oc(-c3ccc(F)cc3)c(C3=NOCN3)c2cc1C1CC1)S(C)(=O)=O; 8.39

The reported HCV 1a-H77 subgenomic replicon pEC50 of `CS(=O)(=O)N(CCN1CCCC1)c1cc2oc(-c3ccc(F)cc3)c(-c3ncc[nH]3)c2cc1C1CC1` is 6.69

Measured pEC50 (HCV 1a-H77 subgenomic replicon), entry `CS(=O)(=O)N(CCO)c1cc2oc(-c3ccc(F)cc3)c(C3=NOCCN3)c2cc1C1CC1` : 7.58

# lookup: `CS(=O)(=O)N(CCCCO)c1cc2oc(-c3ccc(F)cc3)c(-c3ncc[nH]3)c2cc1C1CC1` on HCV 1a-H77 subgenomic replicon, pEC50 = 8.49

Lab note: compound `CS(=O)(=O)N(Cc1cnc(-c2ccc3[nH]ccc3c2)s1)c1ccc2c(-c3ncc[nH]3)c(-c3ccccc3)oc2c1` tested on HCV 1a-H77 subgenomic replicon; recorded pEC50 was 6.64

Observed pEC50 on HCV 1a-H77 subgenomic replicon, entry `CCCCCCN(c1cc2oc(-c3ccc(F)cc3)c(-c3ncc[nH]3)c2cc1C1CC1)S(C)(=O)=O` , equals 7.18

Record `CNC(=O)CCCN(c1cc2oc(-c3ccc(F)cc3)c(-c3ncc[nH]3)c2cc1C1CC1)S(C)(=O)=O` / HCV 1a-H77 subgenomic replicon, pEC50 recorded as 7.76

Entry `Cc1c[nH]c(-c2c(-c3ccc(F)cc3)oc3cc(N(CCO)S(C)(=O)=O)c(C4CC4)cc23)n1` under HCV 1a-H77 subgenomic replicon had pEC50 of 6.79
